The measured values listed here are drawn from paper PMC10092844.

system: PPO2 R128A ΔG210 in Escherichia coli hemG (Amaranthus tuberculatus, UniProt Q0NZW9, DEL210/R128A, cells depend on it)
test-parameters: read-out: IC50 (E. coli hemG growth)
pIC50: −log10 of the molar value.

[
  {
    "compound": "CCOC(=O)C(C)OC(=O)c1cc(Oc2ccc(C(F)(F)F)cc2Cl)ccc1[N+](=O)[O-] (stereo not drawn)",
    "pIC50": "< 5.00"
  },
  {
    "compound": "CC(C)N(C)S(=O)(=O)NC(=O)c1cc(-n2c(=O)cc(C(F)(F)F)n(C)c2=O)c(F)cc1Cl",
    "pIC50": "< 5.00"
  },
  {
    "compound": "C#CCN1C(=O)C(F)(F)Oc2cc(F)c(-n3c(=O)n(C)c(=S)n(C)c3=O)cc21",
    "pIC50": 7.33
  }
]

---

system: PPO2 R128C ΔG210 (Amaranthus tuberculatus, UniProt Q0NZW9, DEL210/R128C)
procedure-text: biochemical

[
  {
    "molecule": "CS(=O)(=O)NC(=O)c1cc(Oc2ccc(C(F)(F)F)cc2Cl)ccc1[N+](=O)[O-]",
    "comparison-symbol": ">",
    "IC50 / nM": 10000
  },
  {
    "molecule": "CCOC(=O)C(C)OC(=O)c1cc(Oc2ccc(C(F)(F)F)cc2Cl)ccc1[N+](=O)[O-] (stereo not shown)",
    "comparison-symbol": "=",
    "IC50 / nM": 2150
  },
  {
    "molecule": "CC(C)N(C)S(=O)(=O)NC(=O)c1cc(-n2c(=O)cc(C(F)(F)F)n(C)c2=O)c(F)cc1Cl",
    "comparison-symbol": ">",
    "IC50 / nM": 10000
  },
  {
    "molecule": "C#CCN1C(=O)C(F)(F)Oc2cc(F)c(-n3c(=O)n(C)c(=S)n(C)c3=O)cc21",
    "comparison-symbol": "=",
    "IC50 / nM": 31.1
  }
]

---

system: R128(X) ΔG210 double-mutant enzymes
Format: biochemical, Amaranthus tuberculatus
test-parameters: read-out: IC50 (over R128(X) ΔG210 mutants)

[
  {
    "molecule": "C#CCN1C(=O)C(F)(F)Oc2cc(F)c(-n3c(=O)n(C)c(=S)n(C)c3=O)cc21 [Trifludimoxazin, trifludimoxazin]",
    "IC50": "0.001 to 0.1 µM"
  },
  {
    "molecule": "CS(=O)(=O)NC(=O)c1cc(Oc2ccc(C(F)(F)F)cc2Cl)ccc1[N+](=O)[O-] [Fomesafen, fomesafen]",
    "IC50": "< 10 µM"
  },
  {
    "molecule": "CC(C)N(C)S(=O)(=O)NC(=O)c1cc(-n2c(=O)cc(C(F)(F)F)n(C)c2=O)c(F)cc1Cl [Saflufenacil, saflufenacil]",
    "IC50": "< 10 µM"
  }
]

---

Catalogue of IC50 readings, one per entry.
system: PPO2 R128E ΔG210 (Amaranthus tuberculatus, UniProt Q0NZW9, DEL210/R128E)
Sequence (Q0NZW9 with tags, fused parts or gaps R128E/DEL210): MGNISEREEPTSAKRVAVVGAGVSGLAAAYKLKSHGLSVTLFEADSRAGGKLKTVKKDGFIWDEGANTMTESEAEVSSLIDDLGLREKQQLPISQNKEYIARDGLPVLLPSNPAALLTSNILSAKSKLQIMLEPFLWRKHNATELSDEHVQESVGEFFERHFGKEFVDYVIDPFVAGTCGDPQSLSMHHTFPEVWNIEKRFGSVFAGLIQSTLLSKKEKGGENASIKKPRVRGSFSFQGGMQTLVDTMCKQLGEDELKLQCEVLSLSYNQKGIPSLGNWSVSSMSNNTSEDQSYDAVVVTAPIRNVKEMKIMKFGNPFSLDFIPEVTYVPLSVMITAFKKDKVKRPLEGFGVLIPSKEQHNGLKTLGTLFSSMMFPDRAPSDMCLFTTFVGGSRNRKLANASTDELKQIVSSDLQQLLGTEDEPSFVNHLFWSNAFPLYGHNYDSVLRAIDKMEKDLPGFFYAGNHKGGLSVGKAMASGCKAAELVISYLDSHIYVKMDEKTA
procedure-text: biochemical
Assay type: biochemical

[
  {
    "molecule": "C#CCN1C(=O)C(F)(F)Oc2cc(F)c(-n3c(=O)n(C)c(=S)n(C)c3=O)cc21 [Trifludimoxazin, trifludimoxazin]",
    "system": "PPO2 R128E ΔG210 (Amaranthus tuberculatus, UniProt Q0NZW9, DEL210/R128E)",
    "comparison-symbol": "=",
    "IC50 / nM": 8.61
  },
  {
    "molecule": "CS(=O)(=O)NC(=O)c1cc(Oc2ccc(C(F)(F)F)cc2Cl)ccc1[N+](=O)[O-] [Fomesafen, fomesafen]",
    "system": "PPO2 R128E ΔG210 (Amaranthus tuberculatus, UniProt Q0NZW9, DEL210/R128E)",
    "comparison-symbol": ">",
    "IC50 / nM": 10000
  },
  {
    "molecule": "CCOC(=O)C(C)OC(=O)c1cc(Oc2ccc(C(F)(F)F)cc2Cl)ccc1[N+](=O)[O-] (stereo not shown) [Lactofen, lactofen]",
    "system": "PPO2 R128E ΔG210 (Amaranthus tuberculatus, UniProt Q0NZW9, DEL210/R128E)",
    "comparison-symbol": "=",
    "IC50 / nM": 649
  },
  {
    "molecule": "CC(C)N(C)S(=O)(=O)NC(=O)c1cc(-n2c(=O)cc(C(F)(F)F)n(C)c2=O)c(F)cc1Cl [Saflufenacil, saflufenacil]",
    "system": "PPO2 R128E ΔG210 (Amaranthus tuberculatus, UniProt Q0NZW9, DEL210/R128E)",
    "comparison-symbol": ">",
    "IC50 / nM": 10000
  }
]

---

Catalogue of pIC50 readings, one per entry.
system: PPO2 R128N ΔG210 (Amaranthus tuberculatus, UniProt Q0NZW9, DEL210-210/R128N)
procedure-text: biochemical
pIC50: −log10 of the molar value.

[
  {
    "compound": "CCOC(=O)C(C)OC(=O)c1cc(Oc2ccc(C(F)(F)F)cc2Cl)ccc1[N+](=O)[O-] (stereo not shown)",
    "pIC50": "< 5.00"
  },
  {
    "compound": "CS(=O)(=O)NC(=O)c1cc(Oc2ccc(C(F)(F)F)cc2Cl)ccc1[N+](=O)[O-]",
    "pIC50": "< 5.00"
  },
  {
    "compound": "CC(C)N(C)S(=O)(=O)NC(=O)c1cc(-n2c(=O)cc(C(F)(F)F)n(C)c2=O)c(F)cc1Cl",
    "pIC50": "< 5.00"
  },
  {
    "compound": "C#CCN1C(=O)C(F)(F)Oc2cc(F)c(-n3c(=O)n(C)c(=S)n(C)c3=O)cc21",
    "pIC50": 6.76
  }
]

---

Catalogue of IC50 readings, one per entry.
system: PPO2 R128M ΔG210 (Amaranthus tuberculatus, UniProt Q0NZW9, DEL210-210/R128M)
Sequence (Q0NZW9 with tags, fused parts or gaps R128M/DEL210-210): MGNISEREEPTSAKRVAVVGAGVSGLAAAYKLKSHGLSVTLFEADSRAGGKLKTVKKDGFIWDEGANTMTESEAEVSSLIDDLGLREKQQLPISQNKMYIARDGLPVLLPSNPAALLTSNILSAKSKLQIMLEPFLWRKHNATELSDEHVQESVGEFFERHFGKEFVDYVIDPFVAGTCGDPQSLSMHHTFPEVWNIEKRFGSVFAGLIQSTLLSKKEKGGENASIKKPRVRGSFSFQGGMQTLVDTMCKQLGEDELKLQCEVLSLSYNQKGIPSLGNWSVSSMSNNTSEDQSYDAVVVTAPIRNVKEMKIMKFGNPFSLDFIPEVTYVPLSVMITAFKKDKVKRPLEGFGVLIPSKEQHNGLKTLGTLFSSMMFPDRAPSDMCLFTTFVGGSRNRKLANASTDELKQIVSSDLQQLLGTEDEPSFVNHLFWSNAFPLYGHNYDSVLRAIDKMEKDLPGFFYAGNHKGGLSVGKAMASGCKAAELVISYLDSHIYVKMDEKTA
procedure-text: biochemical
Assay type: biochemical

[
  {
    "compound": "CS(=O)(=O)NC(=O)c1cc(Oc2ccc(C(F)(F)F)cc2Cl)ccc1[N+](=O)[O-]",
    "system": "PPO2 R128M ΔG210 (Amaranthus tuberculatus, UniProt Q0NZW9, DEL210-210/R128M)",
    "IC50": "> 10 µM"
  },
  {
    "compound": "C#CCN1C(=O)C(F)(F)Oc2cc(F)c(-n3c(=O)n(C)c(=S)n(C)c3=O)cc21",
    "system": "PPO2 R128M ΔG210 (Amaranthus tuberculatus, UniProt Q0NZW9, DEL210-210/R128M)",
    "IC50": "0.182 µM"
  },
  {
    "compound": "CC(C)N(C)S(=O)(=O)NC(=O)c1cc(-n2c(=O)cc(C(F)(F)F)n(C)c2=O)c(F)cc1Cl",
    "system": "PPO2 R128M ΔG210 (Amaranthus tuberculatus, UniProt Q0NZW9, DEL210-210/R128M)",
    "IC50": "> 10 µM"
  },
  {
    "compound": "CCOC(=O)C(C)OC(=O)c1cc(Oc2ccc(C(F)(F)F)cc2Cl)ccc1[N+](=O)[O-] (stereo not shown)",
    "system": "PPO2 R128M ΔG210 (Amaranthus tuberculatus, UniProt Q0NZW9, DEL210-210/R128M)",
    "IC50": "> 10 µM"
  }
]
